Assay: Lipophilicity (logD at pH 7.4) by gradient HPLC
Assay type: physicochemical
Settings: gradient HPLC retention correlated with standard compounds; pH 7.4, gradient HPLC; read-out: logD7.4
Entries and their chromatographic logD
readout: chromatographic logD

>>> val("Cc1cc(C)n2nc(-c3ccc(OCCF)cc3)c(CC(=O)N(C)c3ccccc3)c2n1")
3.7
>>> val("COc1ccc(-c2nn3c(C)cc(C)nc3c2CC(=O)N(C)c2ccccc2)cc1")
3.6
